Data credit: the supplement of paper PMC13380429

# Tested on: Caco-2
# procedureText: cell viability relative to DMSO; higher = less toxic
# conditions: 72 h; 10 nM
endpointLabel: cell viability (%)
One number for each entry, in %.

Parameters: items (list). Returns: cell viability for each item.
1. Cc1cnc(-c2cnc(NCCNc3ccc(C#N)cn3)nc2-c2ccc(Cl)cc2Cl)[nH]1
2. COc1ccc(C2CNC(=O)C2)cc1OC1CCCC1 (stereo not drawn) [rolipram]
3. O=C(CNC(=O)c1cccc(C(F)(F)F)c1)N[C@@H]1CCN(Cc2ccc(Cl)cc2)C1 [teijin-compound-1]
4. COc1cccc(CCc2ccccc2OCC(CN(C)C)OC(=O)CCC(=O)O)c1 (stereo not drawn) [sarpogrelate]
5. CC[C@H](CC[C@@H](C)[C@H]1CC[C@H]2[C@@H]3CC=C4C[C@@H](O[C@@H]5O[C@H](CO)[C@@H](O)[C@H](O)[C@H]5O)CC[C@]4(C)[C@H]3CC[C@]12C)C(C)C [daucosterol]

Data returned:
1. 105
2. 96.4
3. 108
4. 101
5. 99.4
